Biological target: 5HT7 receptor (Homo sapiens (Human))
Sequence (P34969 whole entry): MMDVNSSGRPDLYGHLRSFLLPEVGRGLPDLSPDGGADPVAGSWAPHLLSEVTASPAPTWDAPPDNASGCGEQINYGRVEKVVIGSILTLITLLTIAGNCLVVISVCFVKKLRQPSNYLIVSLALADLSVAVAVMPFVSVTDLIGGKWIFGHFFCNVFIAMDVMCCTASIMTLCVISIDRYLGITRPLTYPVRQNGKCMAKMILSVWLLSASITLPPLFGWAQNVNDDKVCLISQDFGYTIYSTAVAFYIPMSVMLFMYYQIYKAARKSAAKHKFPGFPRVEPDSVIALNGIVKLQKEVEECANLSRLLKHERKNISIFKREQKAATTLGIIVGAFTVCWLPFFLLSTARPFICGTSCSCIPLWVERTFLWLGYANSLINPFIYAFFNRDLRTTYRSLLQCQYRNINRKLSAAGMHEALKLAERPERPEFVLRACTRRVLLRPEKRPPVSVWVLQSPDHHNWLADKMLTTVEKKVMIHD
Experiment: Secondary radioligand binding assay, 5HT7;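 further: competition of test compound with radioligand for binding to membranes from transfected cell lines, 1.5 h incubation at room temperature, filter-bound radioactivity read by liquid scintillation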
Design: key: “—” indicates that a binding interaction was not detected
Settings: average of at least two experiments
Measurement Type: Ki 5HT7

| Compound | Measurement Type | Value Measured |
| --- | --- | --- |
| Cc1ncccc1OC[C@@H]1CN(CCN2CCc3ccccc32)CCO1 [Compound 26s] | Ki 5HT7 | — |
| Cc1ncccc1OC[C@@H]1CN(CC(=O)N2c3ccccc3CC2C)CCO1.Cl (some centres unmarked) | Ki 5HT7 | — |
| Clc1cncc(OC[C@@H]2CN(CCN3CCc4ccccc43)CCO2)c1 [Compound 27s] | Ki 5HT7 | — |
| O=C(CN1CCO[C@H](COc2cccc(Cl)c2)C1)N1CCc2ccccc21 [Compound 22s] | Ki 5HT7 | — |
| COc1cccc(OC[C@@H]2CN(CC(=O)N3CCc4ccccc43)CCO2)c1 [Compound 24s] | Ki 5HT7 | — |
| c1cncc(OC[C@H]2CN(CCN3CCc4ccccc43)CCO2)c1 [Compound 21r] | Ki 5HT7 | — |
| O=C(CN1CCO[C@H](COc2ccccc2)C1)N1CCc2ccccc21 [Compound 18s] | Ki 5HT7 | — |
| O=C(CN1CCO[C@@H](COc2ccccn2)C1)N1CCc2ccccc21 [Compound 14r] | Ki 5HT7 | — |
| CC1Cc2ccccc2N1C(=O)CN1CCO[C@@H](COc2cccc(Cl)c2)C1 (some centres unmarked) | Ki 5HT7 | — |
| C[C@@H]1Cc2ccccc2N1C(=O)CN1CCO[C@@H](COc2ccncc2)C1 | Ki 5HT7 | — |
| Cc1ccc(OC[C@@H]2CN(CCN3CCc4ccccc43)CCO2)cn1 [Compound 28s] | Ki 5HT7 | — |
| CC1Cc2ccccc2N1C(=O)CN1CCO[C@@H](COc2ccncc2)C1 (some centres unmarked) | Ki 5HT7 | — |
| Clc1cccc(OC[C@@H]2CN(CCN3CCc4ccccc43)CCO2)c1 [Compound 23s] | Ki 5HT7 | — |
| Cc1ccnc(C)c1OC[C@H]1CN(CCN2CCc3ccccc32)CCO1 [Compound 29r] | Ki 5HT7 | — |
| c1cncc(OC[C@@H]2CN(CCN3CCc4ccccc43)CCO2)c1 [Compound 21s] | Ki 5HT7 | — |
| Clc1cncc(OC[C@H]2CN(CCN3CCc4ccccc43)CCO2)c1 [Compound 27r] | Ki 5HT7 | — |
| O=C(CN1CCO[C@@H](COc2cccc(Cl)c2)C1)N1CCc2ccccc21 [Compound 22r] | Ki 5HT7 | — |
| Cc1ccnc(OC[C@H]2CN(CCN3CCc4ccccc43)CCO2)c1 [Compound 17r] | Ki 5HT7 | — |
| Clc1cccc(OC[C@H]2CN(CCN3CCc4ccccc43)CCO2)c1 [Compound 23r] | Ki 5HT7 | — |
| CC1Cc2ccccc2N1C(=O)CN1CCO[C@@H](COc2ccccn2)C1 (some centres unmarked) | Ki 5HT7 | — |
| O=C(CN1CCO[C@@H](COc2cccnc2)C1)N1CCc2ccccc21 [Compound 20r] | Ki 5HT7 | — |
| Cc1ccnc(OC[C@H]2CN(CC(=O)N3c4ccccc4CC3C)CCO2)c1 (some centres unmarked) | Ki 5HT7 | — |
| CC1Cc2ccccc2N1C(=O)CN1CCO[C@H](COc2cccc(Cl)c2)C1 (some centres unmarked) | Ki 5HT7 | — |
| Cc1ncccc1OC[C@H]1CN(CC(=O)N2c3ccccc3CC2C)CCO1 (some centres unmarked) | Ki 5HT7 | — |
| Cc1ncccc1OC[C@H]1CN(CC(=O)N2c3ccccc3C[C@H]2C)CCO1 | Ki 5HT7 | — |
| Cc1ncccc1OC[C@@H]1CN(CC(=O)N2c3ccccc3C[C@H]2C)CCO1 | Ki 5HT7 | — |
| Cc1ccccc1OC[C@H]1CN(CC(=O)N2c3ccccc3CC2C)CCO1 (some centres unmarked) | Ki 5HT7 | — |
| Cc1ccc(OC[C@H]2CN(CCN3CCc4ccccc43)CCO2)cn1 [Compound 28r] | Ki 5HT7 | — |
| c1ccc(OC[C@H]2CN(CCN3CCc4ccccc43)CCO2)nc1 [Compound 15r] | Ki 5HT7 | — |
| COc1cccc(OC[C@@H]2CN(CCN3CCc4ccccc43)CCO2)c1 [Compound 25s] | Ki 5HT7 | — |
| O=C(CN1CCO[C@H](COc2cccnc2)C1)N1CCc2ccccc21 [Compound 20s] | Ki 5HT7 | — |
| Cc1ccnc(OC[C@H]2CN(CC(=O)N3CCc4ccccc43)CCO2)c1 [Compound 16r] | Ki 5HT7 | — |

----------
Target: UniProtKB P46098
Sequence (P46098 24-478): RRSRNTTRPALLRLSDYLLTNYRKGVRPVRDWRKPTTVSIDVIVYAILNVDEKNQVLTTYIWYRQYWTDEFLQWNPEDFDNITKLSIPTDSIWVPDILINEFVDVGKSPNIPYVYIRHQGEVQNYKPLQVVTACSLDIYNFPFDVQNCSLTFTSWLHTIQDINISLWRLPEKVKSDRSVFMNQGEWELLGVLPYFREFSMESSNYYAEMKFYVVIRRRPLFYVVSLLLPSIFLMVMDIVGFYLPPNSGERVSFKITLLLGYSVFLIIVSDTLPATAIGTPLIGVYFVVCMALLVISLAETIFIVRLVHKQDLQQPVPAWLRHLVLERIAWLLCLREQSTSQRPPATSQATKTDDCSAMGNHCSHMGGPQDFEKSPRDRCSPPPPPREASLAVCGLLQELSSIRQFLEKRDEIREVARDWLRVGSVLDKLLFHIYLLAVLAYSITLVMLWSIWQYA
Assay: Secondary radioligand binding assay, 5HT3;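 further: radioligand competition binding on membranes from transfected cell lines, 1.5 h incubation at room temperature, filter-retained radioactivity measured by liquid scintillation counting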
Set-up: key: “—” indicates that a binding interaction was not detected
Details: average of at least two experiments

| Molecule | Study System | Ki 5HT3 |
| --- | --- | --- |
| Cc1ccnc(C)c1OC[C@H]1CN(CCN2CCc3ccccc32)CCO1 [Compound 29r] | UniProtKB P46098 | — |
| Cc1ncccc1OC[C@H]1CN(CCN2CCc3ccccc32)CCO1 [Compound 26r] | UniProtKB P46098 | — |
| c1ccc(OC[C@@H]2CN(CCN3CCc4ccccc43)CCO2)cc1 [Compound 19s] | UniProtKB P46098 | — |
| O=C(CN1CCO[C@H](COc2cccc(Cl)c2)C1)N1CCc2ccccc21 [Compound 22s] | UniProtKB P46098 | — |
| Cc1ccnc(OC[C@H]2CN(CCN3CCc4ccccc43)CCO2)c1 [Compound 17r] | UniProtKB P46098 | — |

----------
Ki values recorded for 5HT7 receptor (Homo sapiens (Human), UniProt P34969)

| Compound | Unit Tag | Relation Qualifier | Ki |
| --- | --- | --- | --- |
| c1ccc(OC[C@@H]2CN(CCN3CCc4ccccc43)CCO2)cc1 [Compound 19s] | nM | = | 468 |
| Cc1ncccc1OC[C@H]1CN(CCN2CCc3ccccc32)CCO1 [Compound 26r] | nM | > | 10000 |

----------
pKi values recorded for 5HT2c receptor (Homo sapiens (Human), UniProt P28335)
pKi: −log10 of the molar value. Counter-ions that a name gives are not always drawn.
Measurement Type: pKi

| Molecule | Study System | Value Measured |
| --- | --- | --- |
| COc1cccc(OC[C@@H]2CN(CCN3CCc4ccccc43)CCO2)c1 [Compound 25s] | 5HT2c receptor (Homo sapiens (Human), UniProt P28335) | 5.42 |
| Cc1ccnc(OC[C@H]2CN(CC(=O)N3c4ccccc4CC3C)CCO2)c1 (some centres unmarked) [Compound 70] | 5HT2c receptor (Homo sapiens (Human), UniProt P28335) | 5.20 |
| c1ccc(OC[C@@H]2CN(CCN3CCc4ccccc43)CCO2)cc1 [Compound 19s] | 5HT2c receptor (Homo sapiens (Human), UniProt P28335) | 5.17 |
| Fc1ccc(OC[C@@H]2CN(CCN3CCc4ccccc43)CCO2)cc1 [Compound 32s, hydrochloride] | 5HT2c receptor (Homo sapiens (Human), UniProt P28335) | 5.96 |
| Clc1cccc(OC[C@@H]2CN(CCN3CCc4ccccc43)CCO2)c1 [Compound 23s] | 5HT2c receptor (Homo sapiens (Human), UniProt P28335) | 5.47 |

----------
Below, each entry is listed alongside its reported Ki.
Target: dopamine D2 receptor (Homo sapiens (Human), UniProt P14416)
Sequence (P14416 whole entry, species assumed): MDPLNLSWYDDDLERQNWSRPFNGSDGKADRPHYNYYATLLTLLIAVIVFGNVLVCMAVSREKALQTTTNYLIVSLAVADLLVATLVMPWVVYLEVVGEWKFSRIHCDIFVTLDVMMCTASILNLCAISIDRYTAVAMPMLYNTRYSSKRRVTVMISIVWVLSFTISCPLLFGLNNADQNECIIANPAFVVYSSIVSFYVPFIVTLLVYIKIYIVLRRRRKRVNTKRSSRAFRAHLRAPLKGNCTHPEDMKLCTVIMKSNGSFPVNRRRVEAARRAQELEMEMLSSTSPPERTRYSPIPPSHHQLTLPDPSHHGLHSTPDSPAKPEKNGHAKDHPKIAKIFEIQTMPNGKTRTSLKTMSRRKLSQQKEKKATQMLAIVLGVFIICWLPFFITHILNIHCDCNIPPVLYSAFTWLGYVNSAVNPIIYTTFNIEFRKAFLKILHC
Assay: Secondary radioligand binding assay, D2
Conditions: average of at least two experiments

| Compound | Ki |
| --- | --- |
| Clc1cccc(OC[C@H]2CN(CCN3CCc4ccccc43)CCO2)c1 [Compound 23r] | > 10 µM |
| c1cncc(OC[C@@H]2CN(CCN3CCc4ccccc43)CCO2)c1 [Compound 21s] | > 10 µM |
| Clc1cncc(OC[C@@H]2CN(CCN3CCc4ccccc43)CCO2)c1 [Compound 27s] | > 10 µM |
